All values here come from ChEMBL document CHEMBL4414548.

- ASSAY METHOD TEXT: Clearance in Balb/c mouse at 3 mg/kg, iv
- Type: ADME, organism-based
- EXPERIMENTAL PARAMETERS: in vivo
Would you kindly list clearance for each of these molecules?

MOLECULE	clearance
[2H]C([2H])([2H])NC(=O)c1cnc(Nc2ccc(F)cn2)cc1Nc1ccccc1S(C)(=O)=O	25 mL/min/kg

Kindly review the next molecule as well.
Exercise: Look up clearance: `CNC(=O)c1cnc(Nc2ccc(F)cn2)cc1Nc1ccccc1S(C)(=O)=O`
Key: 15 mL/min/kg

* * *

- ASSAY METHOD TEXT: AUClast in Balb/c mouse at 10 mg/kg, po
- Format: ADME, organism-based
- Set-up: dose 10 mg/kg, time 0 - last, route oral
- EXPERIMENTAL PARAMETERS: in vivo
ASSAY ENDPOINT: AUC(0-t) (µM·h)
One number for each entry, in µM·h.

MOLECULE	UNIT STRING	VALUE OBSERVED
CNC(=O)c1cnc(Nc2ccc(F)cn2)cc1Nc1ccccc1S(C)(=O)=O	µM·h	8.1

Exercise: Please look up its AUC(0-t): `[2H]C([2H])([2H])NC(=O)c1cnc(Nc2ccc(F)cn2)cc1Nc1ccccc1S(C)(=O)=O`
Key: 7.8
